// provenance: patent US9650395B2

Documented MIC across a set of molecules
Test system: super sensitive Gram-negative Escherichia coli (E. coli) BAS849
Assay: Antibacterial activity, microbroth dilution MIC, E. coli BAS849
Format: cell-based
Settings: Escherichia coli; E. coli BAS849, microbroth dilution; read-out: MIC, BAS849

{"Molecule": "CCc1cc(C(=O)O)c(=O)[nH]c1-c1ccc(N(C)CC)cc1 [Cpd 160]", "MIC": "< 1 µg/mL"}
{"Molecule": "CCc1cc(C(=O)O)c(=O)[nH]c1-c1ccc(-n2cccc2)cc1 [Cpd 101]", "MIC": "< 1 µg/mL"}
{"Molecule": "CCc1cc(C(=O)O)c(=O)[nH]c1-c1ccc(N2CC(n3nnc(C)n3)C2)cc1 [Cpd 168]", "MIC": "< 1 µg/mL"}
{"Molecule": "CCc1cc(C(=O)O)c(=O)[nH]c1-c1ccc(N2C[C@@H]3[C@H](C2)[C@H]3NCc2ccccc2)cc1 [Cpd 178]", "MIC": "< 1 µg/mL"}
{"Molecule": "CCc1c(-c2ccc(N3CCC3)cc2)[nH]c(=O)c(C(=O)O)c1O [Cpd 83]", "MIC": "< 1 µg/mL"}
{"Molecule": "CCc1cc(C(=O)O)c(=O)[nH]c1-c1ccc(N2CCC(NC3CC3)C2)cc1 (stereo not drawn) [Cpd 173]", "MIC": "< 1 µg/mL"}
{"Molecule": "CCc1c(-c2ccc(Cl)cc2)[nH]c(=O)c(C(=O)O)c1O [Cpd 77]", "MIC": "1 to 3.5 µg/mL"}
{"Molecule": "CCc1cc(C(=O)O)c(=O)[nH]c1-c1ccc(CN2CCCCC2)n1C [Cpd 352]", "MIC": "12.5 to 150 µg/mL"}
{"Molecule": "CCc1c(-c2ccc(N3CC[C@H](F)C3)cc2)[nH]c(=O)c(C(=O)O)c1O [Cpd 85]", "MIC": "< 1 µg/mL"}

###

System: super sensitive Gram-negative Escherichia coli (E. coli) BAS849
Assay: Antibacterial activity, microbroth dilution MIC, E. coli BAS849
Format: cell-based
Conditions: Escherichia coli; E. coli BAS849, microbroth dilution; read-out: MIC, BAS849
Property label: MIC

{"Compound": "CCc1cc(C(=O)O)c(=O)[nH]c1-c1ccc(OC)cc1N(C)C [Cpd 40]", "Result": "12.5 to 150 µg/mL"}
{"Compound": "CCc1c(-c2ccc(N3CCC(C(C)(C)N)C3)cc2)[nH]c(=O)c(C(=O)O)c1O.Cl (stereo not drawn) [Cpd 279]", "Result": "< 1 µg/mL"}
{"Compound": "CCc1cc(C(=O)O)c(=O)[nH]c1-c1ccc(N2CC3(CCCCC3)CC2=O)cc1 [Cpd 118]", "Result": "3.5 to 12.5 µg/mL"}
{"Compound": "CCc1cc(C(=O)O)c(=O)[nH]c1-c1ccc(OC)cc1F [Cpd 30]", "Result": "1 to 3.5 µg/mL"}
{"Compound": "CCc1c(-c2ccc(N(C)C)nc2)[nH]c(=O)c(C(=O)O)c1O [Cpd 87]", "Result": "< 1 µg/mL"}
{"Compound": "CCc1c(-c2ccc(N3CC4(CCNCC4)C3)cc2)[nH]c(=O)c(C(=O)O)c1O [Cpd 320]", "Result": "3.5 to 12.5 µg/mL"}
{"Compound": "CCc1cc(C(=O)O)c(=O)[nH]c1-c1ccc(OC)cc1OC [Cpd 34]", "Result": "12.5 to 150 µg/mL"}
{"Compound": "CCc1c(-c2ccccc2N(C)C)[nH]c(=O)c(C(=O)O)c1O [Cpd 58]", "Result": "3.5 to 12.5 µg/mL"}
{"Compound": "CCc1cc(C(=O)O)c(=O)[nH]c1-c1ccc(N2CCCC2c2nccs2)cc1 (stereo not drawn) [Cpd 156]", "Result": "< 1 µg/mL"}
